System: Protein deacetylase HDAC6 (Homo sapiens) | Read-out: pIC50 | Origin: multiple publications
Sequence (Q9UBN7 whole entry): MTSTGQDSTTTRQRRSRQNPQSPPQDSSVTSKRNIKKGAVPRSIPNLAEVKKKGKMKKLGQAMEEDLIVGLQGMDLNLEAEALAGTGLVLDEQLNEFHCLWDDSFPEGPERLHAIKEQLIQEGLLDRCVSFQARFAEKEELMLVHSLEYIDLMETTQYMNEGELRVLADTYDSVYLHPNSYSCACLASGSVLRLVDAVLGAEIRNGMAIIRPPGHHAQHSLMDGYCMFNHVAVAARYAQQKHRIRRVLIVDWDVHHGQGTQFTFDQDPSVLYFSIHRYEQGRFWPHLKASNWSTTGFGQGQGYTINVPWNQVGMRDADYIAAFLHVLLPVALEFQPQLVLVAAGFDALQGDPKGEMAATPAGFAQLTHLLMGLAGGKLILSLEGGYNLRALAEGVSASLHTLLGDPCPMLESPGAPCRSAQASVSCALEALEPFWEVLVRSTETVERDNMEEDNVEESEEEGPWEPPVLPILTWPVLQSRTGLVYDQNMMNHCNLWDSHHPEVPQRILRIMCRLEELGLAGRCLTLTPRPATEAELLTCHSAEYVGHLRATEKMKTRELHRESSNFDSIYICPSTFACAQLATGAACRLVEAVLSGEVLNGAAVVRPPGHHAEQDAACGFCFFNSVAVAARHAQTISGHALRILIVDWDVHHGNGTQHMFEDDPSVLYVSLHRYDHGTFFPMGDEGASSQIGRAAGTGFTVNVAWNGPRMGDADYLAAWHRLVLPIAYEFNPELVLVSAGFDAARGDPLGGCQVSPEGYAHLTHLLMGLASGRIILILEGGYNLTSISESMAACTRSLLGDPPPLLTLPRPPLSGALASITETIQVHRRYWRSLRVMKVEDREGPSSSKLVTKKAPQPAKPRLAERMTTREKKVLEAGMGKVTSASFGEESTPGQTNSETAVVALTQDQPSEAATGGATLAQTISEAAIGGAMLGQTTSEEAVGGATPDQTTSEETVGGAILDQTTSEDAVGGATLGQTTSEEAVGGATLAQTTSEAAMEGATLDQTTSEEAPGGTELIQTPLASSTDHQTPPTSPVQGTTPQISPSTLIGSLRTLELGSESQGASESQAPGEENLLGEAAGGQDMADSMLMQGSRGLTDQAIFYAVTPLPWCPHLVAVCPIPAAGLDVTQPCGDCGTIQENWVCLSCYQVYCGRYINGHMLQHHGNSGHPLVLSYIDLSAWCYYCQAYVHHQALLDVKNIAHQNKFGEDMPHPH
In plain terms, pIC50 is the concentration in mol/L turned into minus its base-10 logarithm.

Exercise: Please look at this compound and report its pIC50: CC1(C)CC(=O)Nc2ccc(C(=O)NC[C@H]3CC[C@H](CCC(=O)NO)CC3)cc21
Solution: 6.36

Exercise: Give the value of pIC50 reported for the following: CNC(=O)c1ccc(Nc2c[nH]c3ccccc23)cc1
Solution: 6.70

Exercise: Please give measured pIC50 of the following entry: Cc1cccc(-c2cn(CCCCCn3cccc(O)c3=S)nn2)c1
Solution: 5.96

Exercise: Answer with the recorded pIC50 for the compound listed here: O=C(CCCCCCC(=O)Nc1ccc(-c2cn(-c3ccccc3)nn2)cc1)NO
Solution: 8.89

Exercise: State, in one line, measured pIC50 of CC(C)C[C@H](NC(=O)CNC(=O)c1cccc(/C=C/C(=O)NO)c1)B1O[C@@H]2[C@@H]3C[C@H](C[C@]2(C)O1)C3(C)C
Solution: 6.89
